Reference for the values: patent US20120117670A1

TARGET_SYSTEM: T1, Human AXL-Fc (R&D Systems, #154-AL) (human, UniProt P30530 26-451)
T1 construct: Bought reagent; also called human AXL-Fc fusion protein; human AXL-Fc protein; not shown: Fc part of the bought fusion protein
T1 sequence: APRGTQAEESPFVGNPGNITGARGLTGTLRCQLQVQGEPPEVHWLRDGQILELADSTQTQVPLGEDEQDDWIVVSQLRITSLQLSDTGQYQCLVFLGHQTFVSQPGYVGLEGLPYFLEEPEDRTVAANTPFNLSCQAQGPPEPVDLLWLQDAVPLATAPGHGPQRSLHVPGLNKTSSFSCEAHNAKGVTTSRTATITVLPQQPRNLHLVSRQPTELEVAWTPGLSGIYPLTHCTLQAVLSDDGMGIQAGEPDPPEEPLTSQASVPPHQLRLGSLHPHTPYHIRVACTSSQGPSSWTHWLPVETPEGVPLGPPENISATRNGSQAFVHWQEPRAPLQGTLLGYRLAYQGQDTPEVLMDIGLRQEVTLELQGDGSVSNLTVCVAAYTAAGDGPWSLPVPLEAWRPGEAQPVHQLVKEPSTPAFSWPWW
PROCEDURE_SUMMARY: ELISA on plate-adsorbed human AXL-Fc (1 ug/ml), 5-fold antibody dilution series, AP-conjugated goat anti-human IgG, fluorescent substrate (Example 13)
MEASURED_ENDPOINT: EC50 (read off the curve)

Use the examples below as a reference point.
- h#11B7-T10 (antibody, human IgG1, kappa, V domains shown, Humanized IgG1/kappa) VH: QVQLQESGPGLVKPSETLSLTCTVSGYSITSNYWGWIRQPPGKGLEWIGYITYSGSTSYNPSLKSRVSISRDTSKNQFSLKLSSVTAADTAVYYCAITTFYYWGQGTLVTVSS VL: DIQMTQSPSSLSASVGDRVTITCRASQDIGNYLRWYQQKPGKAPKLLISGATNLAAGVPSRFSGSGSGSDYTLTISSLQPEDFATYYCLQSKESPWTFGQGTKVEIKR: ~0.02 µg/mL
- h#11B7-T9 (antibody, human IgG1, kappa, V domains shown, Humanized IgG1/kappa) VH: QVQLQESGPGLVKPSETLSLTCTVSGYSITSNYWGWIRQPPGKGLEWIGYITYSGSTSYNPSLKSRVSISRDTSKNQFSLKLSSVTAADTAVYYCAITTFYYWGQGTLVTVSS VL: DIQMTQSPSSLSASVGDRVTITCRASQDIGNYLRWFQQKPGKAPKLMISGATNLAAGVPSRFSGSGSGSDFTLTISSLQPEDFATYYCLQSKESPWTFGQGTKVEIKR: ~0.02 µg/mL
- h#11B7-T13 (antibody, human IgG1, kappa, V domains shown, Humanized IgG1/kappa) VH: QVQLQESGPGLVKPSETLSLTCTVSGYSITSNYWGWIRQPPGKGLEWIGYITYSGSTSYNPSLKSRVSISRDTSKNQFSLKLSSVTAADTAVYYCAITTFYYWGQGTLVTVSS VL: DIQMTQSPSSLSASVGDRVTITCRASQDIGNYLRWYQQKPGKAPKLLISGATNLAAGVPSRFSGSGSGSDFTLTISSLQPEDFATYYCLQSKESPWTFGQGTKVEIKR: ~0.03 µg/mL

Bench note: what EC50 (read off the curve) did h#11B7-T8 (antibody, human IgG1, kappa, V domains shown, Humanized IgG1/kappa) VH: QVQLQESGPGLVKPSETLSLTCTVSGYSITSNYWGWIRQPPGKGLEWIGYITYSGSTSYNPSLKSRVSISRDTSKNQFSLKLSSVTAADTAVYYCAITTFYYWGQGTLVTVSS VL: DIQMTQSPSSLSASVGDRVTITCRASQDIGNYLRWFQQKPGKAPKLLISGATNLAAGVPSRFSGSGSGSDYTLTISSLQPEDFATYYCLQSKESPWTFGQGTKVEIKR show?
~0.02 µg/mL
